- Tested on: NCI-H1915
- Test method notes: relative viability (nuclei count vs DMSO), 5 days (fraction); higher = more cells survive
- Run parameters: first compound 0.1 µM
Lab note: anything with relative viability below 0.8 is marked true (1); values at 0.8 or higher are marked false (0).

Cc1cn(-c2cc(NC(=O)c3ccc(C)c(Nc4nccc(-c5cccnc5)n4)c3)cc(C(F)(F)F)c2)cn1 [Nilotinib] + CC(=O)Nc1cccc(-n2c(=O)n(C3CC3)c(=O)c3c(Nc4ccc(I)cc4F)n(C)c(=O)c(C)c32)c1 [Trametinib] (partner 0.02 µM) | true (1)
Cc1cn(-c2cc(NC(=O)c3ccc(C)c(Nc4nccc(-c5cccnc5)n4)c3)cc(C(F)(F)F)c2)cn1 [Nilotinib] + O=C(c1cc(Cc2n[nH]c(=O)c3ccccc23)ccc1F)N1CCN(C(=O)C2CC2)CC1 [Olaparib] (partner 8 µM) | true (1)
Cc1cn(-c2cc(NC(=O)c3ccc(C)c(Nc4nccc(-c5cccnc5)n4)c3)cc(C(F)(F)F)c2)cn1 [Nilotinib] + C[C@]1(O)C[C@@H](c2nc(-c3ccc4ccc(-c5ccccc5)nc4c3)c3c(N)nccn32)C1 [Linsitinib] (partner 1 µM) | false (0)
Cc1cn(-c2cc(NC(=O)c3ccc(C)c(Nc4nccc(-c5cccnc5)n4)c3)cc(C(F)(F)F)c2)cn1 [Nilotinib] + Cc1nc(Nc2ncc(C(=O)Nc3c(C)cccc3Cl)s2)cc(N2CCN(CCO)CC2)n1 [Dasatinib] (partner 0.075 µM) | true (1)
Cc1cn(-c2cc(NC(=O)c3ccc(C)c(Nc4nccc(-c5cccnc5)n4)c3)cc(C(F)(F)F)c2)cn1 [Nilotinib] + C[C@@H](Oc1cc(-c2cnn(C3CCNCC3)c2)cnc1N)c1c(Cl)ccc(F)c1Cl [Crizotinib] (partner 1 µM) | false (0)
Cc1cn(-c2cc(NC(=O)c3ccc(C)c(Nc4nccc(-c5cccnc5)n4)c3)cc(C(F)(F)F)c2)cn1 [Nilotinib] + CS(=O)(=O)N1CCN(Cc2cc3nc(-c4cccc5[nH]ncc45)nc(N4CCOCC4)c3s2)CC1 [Pictilisib] (partner 1 µM) | true (1)

---

Catalogue of molecules with associated relative viability
- Tested on: NCI-H2342
- Test method notes: relative viability (nuclei count vs DMSO), 5 days (fraction); higher = more cells survive
- Run parameters: first compound 0.006325 µM
Measured endpoint: relative viability

CCNC(=O)c1noc(-c2cc(C(C)C)c(O)cc2O)c1-c1ccc(CN2CCOCC2)cc1 [Luminespib] + O=C(c1cc(Cc2n[nH]c(=O)c3ccccc23)ccc1F)N1CCN(C(=O)C2CC2)CC1 [Olaparib] (partner 8 µM) | 0.512
CCNC(=O)c1noc(-c2cc(C(C)C)c(O)cc2O)c1-c1ccc(CN2CCOCC2)cc1 [Luminespib] + COc1cccc2cc(-c3nc([C@H]4CC[C@H](C(=O)O)CC4)n4ncnc(N)c34)[nH]c12 [OSI-027] (partner 0.5 µM) | 0.586
CCNC(=O)c1noc(-c2cc(C(C)C)c(O)cc2O)c1-c1ccc(CN2CCOCC2)cc1 [Luminespib] + Cc1nc(Nc2ncc(C(=O)Nc3c(C)cccc3Cl)s2)cc(N2CCN(CCO)CC2)n1 [Dasatinib] (partner 0.075 µM) | 0.33
CCNC(=O)c1noc(-c2cc(C(C)C)c(O)cc2O)c1-c1ccc(CN2CCOCC2)cc1 [Luminespib] + Nc1nc2[nH]cc(CCc3ccc(C(=O)N[C@@H](CCC(=O)O)C(=O)O)cc3)c2c(=O)[nH]1 [Pemetrexed] (partner 0.2 µM) | 0.755

---

- Tested on: H3255
- Test method notes: relative viability (nuclei count vs DMSO), 5 days (fraction); higher = more cells survive
- Run parameters: first compound 0.02 µM
Parameter: relative viability. Scope: all listed entries.
Measured endpoint: relative viability

CCNC(=O)c1noc(-c2cc(C(C)C)c(O)cc2O)c1-c1ccc(CN2CCOCC2)cc1 [Luminespib] + CS(=O)(=O)CCNCc1ccc(-c2ccc3ncnc(Nc4ccc(OCc5cccc(F)c5)c(Cl)c4)c3c2)o1 [Lapatinib] (partner 2 µM) | 0.234
CCNC(=O)c1noc(-c2cc(C(C)C)c(O)cc2O)c1-c1ccc(CN2CCOCC2)cc1 [Luminespib] + C[C@]1(O)C[C@@H](c2nc(-c3ccc4ccc(-c5ccccc5)nc4c3)c3c(N)nccn32)C1 [Linsitinib] (partner 1 µM) | 0.65
CCNC(=O)c1noc(-c2cc(C(C)C)c(O)cc2O)c1-c1ccc(CN2CCOCC2)cc1 [Luminespib] + Nc1ncn([C@H]2C[C@H](O)[C@@H](CO)O2)c(=O)n1 [Decitabine] (partner 2 µM) | 0.446
CN1CCN(CCOc2cc(OC3CCOCC3)c3c(Nc4c(Cl)ccc5c4OCO5)ncnc3c2)CC1 [Saracatinib] + N=C(N)NC(=N)NCCc1ccccc1 [Phenformin] (partner 250 µM) | 0.354

---

- Tested on: NCI-H650
- Test method notes: relative viability (nuclei count vs DMSO), 5 days (fraction); higher = more cells survive
- Run parameters: first compound 0.06325 µM
Documented relative viability across a set of compounds
Measured endpoint: relative viability

CCNC(=O)c1noc(-c2cc(C(C)C)c(O)cc2O)c1-c1ccc(CN2CCOCC2)cc1 [Luminespib] + CC(C)C[C@H](NC(=O)[C@H](Cc1ccccc1)NC(=O)c1cnccn1)B(O)O [Bortezomib] (partner 0.002 µM) | 0.124
CCNC(=O)c1noc(-c2cc(C(C)C)c(O)cc2O)c1-c1ccc(CN2CCOCC2)cc1 [Luminespib] + O=C(CCCCCCC(=O)Nc1ccccc1)NO [Vorinostat] (partner 1 µM) | 0.158
CCNC(=O)c1noc(-c2cc(C(C)C)c(O)cc2O)c1-c1ccc(CN2CCOCC2)cc1 [Luminespib] + Cc1cc(Nc2cc(N3CCN(C)CC3)nc(Sc3ccc(NC(=O)C4CC4)cc3)n2)n[nH]1 [Tozasertib] (partner 0.1 µM) | 0.199
CCNC(=O)c1noc(-c2cc(C(C)C)c(O)cc2O)c1-c1ccc(CN2CCOCC2)cc1 [Luminespib] + Nc1nc2[nH]cc(CCc3ccc(C(=O)N[C@@H](CCC(=O)O)C(=O)O)cc3)c2c(=O)[nH]1 [Pemetrexed] (partner 0.2 µM) | 0.257
CCNC(=O)c1noc(-c2cc(C(C)C)c(O)cc2O)c1-c1ccc(CN2CCOCC2)cc1 [Luminespib] + COc1cccc2cc(-c3nc([C@H]4CC[C@H](C(=O)O)CC4)n4ncnc(N)c34)[nH]c12 [OSI-027] (partner 0.5 µM) | 0.368

---

- System: EPLC-272H
- Test method notes: relative viability (nuclei count vs DMSO), 5 days (fraction); higher = more cells survive
- Run parameters: first compound 0.001 µM
Measured endpoint: relative viability

Cc1cn(-c2cc(NC(=O)c3ccc(C)c(Nc4nccc(-c5cccnc5)n4)c3)cc(C(F)(F)F)c2)cn1 [Nilotinib] + Nc1ncn([C@H]2C[C@H](O)[C@@H](CO)O2)c(=O)n1 [Decitabine] (partner 2 µM) | 0.294
Cc1cn(-c2cc(NC(=O)c3ccc(C)c(Nc4nccc(-c5cccnc5)n4)c3)cc(C(F)(F)F)c2)cn1 [Nilotinib] + CCNC(=O)c1noc(-c2cc(C(C)C)c(O)cc2O)c1-c1ccc(CN2CCOCC2)cc1 [Luminespib] (partner 0.01 µM) | 0.134
Cc1cn(-c2cc(NC(=O)c3ccc(C)c(Nc4nccc(-c5cccnc5)n4)c3)cc(C(F)(F)F)c2)cn1 [Nilotinib] + Cc1cc(Nc2cc(N3CCN(C)CC3)nc(Sc3ccc(NC(=O)C4CC4)cc3)n2)n[nH]1 [Tozasertib] (partner 0.1 µM) | 0.212
Cc1cn(-c2cc(NC(=O)c3ccc(C)c(Nc4nccc(-c5cccnc5)n4)c3)cc(C(F)(F)F)c2)cn1 [Nilotinib] + CC1(C)CCC(c2ccc(Cl)cc2)=C(CN2CCN(c3ccc(C(=O)NS(=O)(=O)c4ccc(N[C@H](CCN5CCOCC5)CSc5ccccc5)c(S(=O)(=O)C(F)(F)F)c4)cc3)CC2)C1 [Navitoclax] (partner 0.5 µM) | 1.1

---

Quick list: relative viability per entry.
- Test system: H3255
- Test method notes: relative viability (nuclei count vs DMSO), 5 days (fraction); higher = more cells survive
- Run parameters: first compound 0.6325 µM
Measured endpoint: relative viability

CN1CCN(CCOc2cc(OC3CCOCC3)c3c(Nc4c(Cl)ccc5c4OCO5)ncnc3c2)CC1 [Saracatinib] + CCNC(=O)c1noc(-c2cc(C(C)C)c(O)cc2O)c1-c1ccc(CN2CCOCC2)cc1 [Luminespib] (partner 0.01 µM) | 0.745
Cc1csc(=NC2CCCCC2)n1/N=C/c1ccc(O)c(O)c1O [MIM1] + Nc1ncn([C@H]2C[C@H](O)[C@@H](CO)O2)c(=O)n1 [Decitabine] (partner 2 µM) | 0.657
Cc1csc(=NC2CCCCC2)n1/N=C/c1ccc(O)c(O)c1O [MIM1] + C[C@@H](Oc1cc(-c2cnn(C3CCNCC3)c2)cnc1N)c1c(Cl)ccc(F)c1Cl [Crizotinib] (partner 1 µM) | 0.847
CN1CCN(CCOc2cc(OC3CCOCC3)c3c(Nc4c(Cl)ccc5c4OCO5)ncnc3c2)CC1 [Saracatinib] + CC(=O)Nc1cccc(-n2c(=O)n(C3CC3)c(=O)c3c(Nc4ccc(I)cc4F)n(C)c(=O)c(C)c32)c1 [Trametinib] (partner 0.02 µM) | 0.663
